target_desc: CB1 (rCB1) (Rattus norvegicus, UniProt P20272)
Sequence (P20272 whole entry): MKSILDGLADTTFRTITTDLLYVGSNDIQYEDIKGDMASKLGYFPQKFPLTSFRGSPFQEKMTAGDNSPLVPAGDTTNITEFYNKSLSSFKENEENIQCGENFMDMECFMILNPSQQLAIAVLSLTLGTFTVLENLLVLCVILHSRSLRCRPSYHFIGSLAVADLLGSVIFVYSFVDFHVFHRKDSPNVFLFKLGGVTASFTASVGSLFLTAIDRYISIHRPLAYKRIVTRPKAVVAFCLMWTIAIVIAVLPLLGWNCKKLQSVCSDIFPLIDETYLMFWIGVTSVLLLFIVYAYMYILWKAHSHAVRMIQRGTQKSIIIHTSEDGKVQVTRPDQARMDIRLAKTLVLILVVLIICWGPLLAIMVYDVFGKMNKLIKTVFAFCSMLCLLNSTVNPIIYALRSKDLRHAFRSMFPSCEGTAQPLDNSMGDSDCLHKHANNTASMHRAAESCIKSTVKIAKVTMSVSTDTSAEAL
experimental_protocol: Single-point radioligand displacement screen
Type: binding
run_conditions: Figure 1c source data, replicate 2

molecule | rep2_displacement
Cc1ccn2cc(C(=O)N3CCc4c(F)cc(Br)cc4C3)nc2c1 | 11.6
Cc1ccc(OCCC(=O)N2CC3CCCN3c3ccccc32)c(C)c1 (stereo not drawn) | 34.5
Cn1nc(-c2nnc(C(C)(C)Oc3ccc(Cl)cc3)o2)c2ccccc2c1=O | 81.2
Cc1c(C(=O)OCC2CSc3ccccc3O2)cnn1Cc1ccccc1 (stereo not drawn) | 79.7
O=C(CCc1ccccc1)c1cn(C2(c3ccc(F)cc3)CCOCC2)nn1 | 55.9
Cc1ccccc1-n1c(=O)c2ccccc2n2c(SC[C@H]3CCCO3)nnc12 | 19.4
Fc1ccc(-n2ncc3c(SCc4cc(-c5ccco5)on4)ncnc32)cc1 | 15.9
Cc1cc(C(=O)Nc2ccnn2-c2cccc(Cl)c2)nn1[C@H](C)C1CC1 | 57.3
CCOC(=O)CCC(OC(=O)c1nc(C)n(-c2ccccc2)n1)c1ccccc1 (stereo not drawn) | 28.7

---

target_desc: hCB1 (Homo sapiens, UniProt P21554)
Sequence (P21554 whole entry): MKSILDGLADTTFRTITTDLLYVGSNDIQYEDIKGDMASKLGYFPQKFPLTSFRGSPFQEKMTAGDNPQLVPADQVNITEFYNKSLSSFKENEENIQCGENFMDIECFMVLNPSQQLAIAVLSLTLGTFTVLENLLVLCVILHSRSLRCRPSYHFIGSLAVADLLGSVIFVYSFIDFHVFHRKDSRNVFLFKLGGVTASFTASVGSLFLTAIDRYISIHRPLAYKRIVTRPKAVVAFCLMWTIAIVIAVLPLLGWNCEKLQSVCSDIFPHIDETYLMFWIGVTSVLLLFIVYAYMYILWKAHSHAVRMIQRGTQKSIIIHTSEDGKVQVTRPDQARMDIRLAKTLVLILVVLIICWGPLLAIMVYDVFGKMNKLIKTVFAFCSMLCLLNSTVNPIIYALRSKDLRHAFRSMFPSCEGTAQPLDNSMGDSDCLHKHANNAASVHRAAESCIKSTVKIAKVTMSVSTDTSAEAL
experimental_protocol: bioSensAll ebBRET signaling profiling, hCB1
Format: cell-based
Parameters: host or cells: HEK293SL cells, transient PEI transfection
run_conditions: Log [Compound] (M) -11.9208; single replicate values, FigS6a

compound | target_desc | Gi1 hCB1
Cc1cc(C(=O)NC(c2ccccc2)c2ccco2)nn1-c1cccc(C(F)(F)F)c1 (centres unmarked) | hCB1 (Homo sapiens, UniProt P21554) | 2.833
COC(=O)[C@@H]1[C@@H]2CCC[C@@H]2CN1C(=O)c1cc(C)n(-c2cccc(Cl)c2)n1 (racemic) | hCB1 (Homo sapiens, UniProt P21554) | 1.261
COC(=O)[C@@H]1[C@@H]2CCC[C@@H]2CN1C(=O)c1cc(C)n(-c2cccc(C(F)(F)F)c2)n1 | hCB1 (Homo sapiens, UniProt P21554) | -0.3581
Cn1nc(-c2nnc(C(C)(C)Oc3ccc(Cl)cc3)o2)c2ccccc2c1=O | hCB1 (Homo sapiens, UniProt P21554) | -6.363
COC(=O)C(NC(=O)c1cc(C)n(-c2cccc(C(F)(F)F)c2)n1)c1cccs1 (centres unmarked) | hCB1 (Homo sapiens, UniProt P21554) | -0.003475

---

Parameter GoB hCB1: see the listing below.
target_desc: UniProtKB P21554
experimental_protocol: bioSensAll ebBRET signaling profiling, hCB1
Type: cell-based
Design: host or cells: HEK293SL cells, transient PEI transfection
run_conditions: Log [Compound] (M) -9.15521; single replicate values, FigS6a
readout: GoB hCB1

molecule | readout | assay_result
Cc1nn(Cc2ccc(Cl)cc2)c(C)c1C(=O)OCC1CSc2ccccc2O1 (stereo not shown) | GoB hCB1 | -2.124
COC(=O)[C@@H]1[C@@H]2CC[C@@H]2CN1C(=O)c1cc(C)n(-c2cccc(C(F)(F)F)c2)n1 | GoB hCB1 | -2.294
Cc1nc(CC2CC2)oc1-c1nc(Cc2cc3c(cc2Br)OCO3)no1 | GoB hCB1 | -5.336
Cc1cc(C(=O)N(C)C(c2ccccc2)c2ccco2)nn1-c1cccc(C(F)(F)F)c1 (stereo not shown) | GoB hCB1 | -5.747
Cc1cc(C(=O)N2CC3(CCC3)[C@H]2[C@H]2CCCO2)nn1-c1cccc(C(F)(F)F)c1 | GoB hCB1 | -2.079
Cc1cc(C(=O)N2CC3(CCC3)[C@@H]2[C@@H]2CCCO2)nn1-c1cccc(C(F)(F)F)c1 | GoB hCB1 | -3.967
Cn1nc(-c2nnc(C(C)(C)Oc3ccc(Cl)cc3)o2)c2ccccc2c1=O | GoB hCB1 | -7.419
Cc1cc(C(=O)NC(c2ccccc2)c2ccco2)nn1-c1cccc(C(F)(F)F)c1 (stereo not shown) | GoB hCB1 | -3.445
Cc1cc(C(=O)NC(c2ccccc2)c2ccco2)nn1-c1cccc(C#N)c1 (stereo not shown) | GoB hCB1 | -2.744
Cc1cc(C(=O)NC(c2ccco2)c2ccco2)nn1-c1cccc(C(F)(F)F)c1 | GoB hCB1 | 0.583
COC(=O)C(NC(=O)c1cc(C)n(-c2cccc(F)c2)n1)c1cccs1 (stereo not shown) | GoB hCB1 | -2.906
Brc1cc2c(cc1Cc1noc(-c3cnn(CC4CC4)c3)n1)OCO2 | GoB hCB1 | -5.544
COc1cccc(C(NC(=O)c2cc(C)n(-c3cccc(C(F)(F)F)c3)n2)c2ccco2)c1 (stereo not shown) | GoB hCB1 | -0.01046
COC(=O)C(NC(=O)c1cc(C)n(-c2cccc(C(F)(F)F)c2)n1)c1cccs1 (stereo not shown) | GoB hCB1 | -0.7658
CC(=O)C(c1cccs1)N(C)C(=O)c1cc(C)n(-c2cccc(C(F)(F)F)c2)n1 (stereo not shown) | GoB hCB1 | -1.036
Cc1c(C(=O)OCC2CSc3ccccc3O2)cnn1Cc1ccccc1 (stereo not shown) | GoB hCB1 | -5.492
Cc1cc(C(=O)N2CC3(CCC3)[C@@H]2[C@H]2CCCO2)nn1-c1cccc(C(F)(F)F)c1 (single isomer, unassigned) | GoB hCB1 | -0.6579
Cc1cc(C(=O)N(C)C(c2ccco2)c2ccco2)nn1-c1cccc(C(F)(F)F)c1 | GoB hCB1 | -0.8737
Cc1cc(C(=O)N2CC3(CCC3)[C@H]2[C@@H]2CCCO2)nn1-c1cccc(C(F)(F)F)c1 | GoB hCB1 | 0.565
COC(=O)[C@@H]1[C@@H]2CCC[C@@H]2CN1C(=O)c1cc(C)n(-c2cccc(Cl)c2)n1 (racemic) | GoB hCB1 | -5.028
Cn1nc(-c2nnc(C(C)(C)Oc3ccc(C(F)(F)F)cc3)o2)c2ccccc2c1=O | GoB hCB1 | -4.208
COC(=O)[C@@H]1[C@@H]2CCC[C@@H]2CN1C(=O)c1cc(C)n(-c2cccc(C(F)(F)F)c2)n1 | GoB hCB1 | -1.989

---

Parameter Emax: see the listing below.
target_desc: hCB1 (Homo sapiens, UniProt P21554)
experimental_protocol: bioSensAll ebBRET signaling profiling, hCB1
Format: cell-based
Set-up: host or cells: HEK293SL cells, transient PEI transfection
run_conditions: read-out: Emax [95% CI], hCB1 Gi1; normalized to CP-55,940

molecule | target_desc | Emax [%]
Cc1c(C(=O)OCC2CSc3ccccc3O2)cnn1Cc1ccccc1 (stereo not drawn) | hCB1 (Homo sapiens, UniProt P21554) | 34
COC(=O)[C@@](C)(NC(=O)c1cc(C)n(-c2cccc(C(F)(F)F)c2)n1)c1cccs1 | hCB1 (Homo sapiens, UniProt P21554) | 92
CC(=O)C(c1cccs1)N(C)C(=O)c1cc(C)n(-c2cccc(C(F)(F)F)c2)n1 (stereo not drawn) | hCB1 (Homo sapiens, UniProt P21554) | 68
COC(=O)C(NC(=O)c1cc(C)n(-c2cccc(C(F)(F)F)c2)n1)c1cccs1 (stereo not drawn) | hCB1 (Homo sapiens, UniProt P21554) | 92
COC(=O)C(NC(=O)c1cc(C)n(-c2cccc(F)c2)n1)c1cccs1 (stereo not drawn) | hCB1 (Homo sapiens, UniProt P21554) | 73
Cc1cc(C(=O)NC(c2ccccc2)c2ccco2)nn1-c1cccc(C#N)c1 (stereo not drawn) | hCB1 (Homo sapiens, UniProt P21554) | 28
Cn1nc(-c2nnc(C(C)(C)Oc3ccc(C(F)(F)F)cc3)o2)c2ccccc2c1=O | hCB1 (Homo sapiens, UniProt P21554) | 89
Cc1cc(C(=O)NC(c2ccco2)c2ccco2)nn1-c1cccc(C(F)(F)F)c1 | hCB1 (Homo sapiens, UniProt P21554) | 81
COC(=O)[C@](C)(NC(=O)c1cc(C)n(-c2cccc(C(F)(F)F)c2)n1)c1cccs1 | hCB1 (Homo sapiens, UniProt P21554) | 82

---

target_desc: CB1 (rCB1) (Rattus norvegicus)
experimental_protocol: Single-point radioligand displacement screen
Assay type: binding
run_conditions: single point at 10 µM, three replicates

compound | % radioligand displacement [S.D]
O=C1Cc2cc(-c3csc(Cc4ccc(F)cc4)n3)cc3c2N1CCC3 [‘1038] | 53.6% [2.91]
O=C(CCc1ccccc1)c1cn(C2(c3ccc(F)cc3)CCOCC2)nn1 [‘7337] | 57.0% [3.04]
COc1cccc(C2(C)CCN(C(=O)CC34CCCCC3C4(F)F)C2)c1 (centres unmarked) [‘7218] | 52.2% [24.79]
O=c1ccc(-c2nc(C(F)(F)c3ccc(F)cc3)no2)nn1-c1ccc(F)cc1 [‘2443] | 51.1% [4.87]
Cc1cc(C(=O)Nc2ccnn2-c2cccc(Cl)c2)nn1[C@H](C)C1CC1 [‘7902] | 57.1% [0.02]

Provenance of the data: paper PMC11882969
